These measurements were taken from PubChem BioAssay (NCI).

molecules and their reported GI50
- Test system: IGROV1 ovarian
- assay explanation: NCI tumour cell line growth inhibition, 48 h

// known answers, use as guide
The molecule O=S(=O)(Nc1cccc(Cl)c1)c1ccc(-c2cnc(C3CC3)o2)cc1 showed GI50 equal to 662 nM

Summary for this molecule, c1ccc(-c2n(Cc3ccc4ccccc4n3)cc[n+]2Cc2ccc3ccccc3n2)cc1 : GI50 is 1870 nM

For this molecule ( O=c1cc(-c2ccccc2)oc2cc(OCc3cn(Cc4ccc(F)cc4)nn3)cc(OCc3cn(Cc4ccc(F)cc4)nn3)c12 ), measured GI50 is 4450 nM

The recorded GI50 for C[C@H](Nc1ccc2c(c1)OCCn1cc(N3C(=O)OC[C@H]3C(F)F)nc1-2)C(N)=O is 19.9 nM

Turning now to a further record.
The measured GI50 associated with CC[C@H](C)[C@H](NC(=O)C12CC(NC)(C1)C2)C(=O)N(C)[C@H](C[C@@H](OC(C)=O)c1nc(C(=O)N[C@@H](Cc2ccccc2)C[C@H](C)C(=O)OC)cs1)C(C)C reads 181 nM

---

# maps each entry to its TGI
- Tested on: SR leukemia
- assay explanation: NCI tumour cell line growth inhibition, 48 h

Recorded TGI, per entry:
Quick note, TGI for CC(=O)COC(=O)CC(C)=O landed at > 100 µM

Summary for this compound, CC(C)c1ccccc1NC(=O)CCC(=O)NN : TGI is > 100 µM

Okay, next one:
// TGI lookup, compound = O=C1/C(=C\c2cccc(Oc3ccccc3)c2)S(=O)(=O)C(c2ccccc2)N1c1cc(Cl)ccc1Cl (stereo not drawn) , result: > 100 µM

---

- Test system: NCI-H226 lung
- assay explanation: NCI tumour cell line growth inhibition, 48 h
The entries below come with measured TGI values attached.
Write down the numeric answer in µM and omit the unit.

For orientation, consider the following solved cases.
Cn1c(CCC2(C)Cc3ccccc3C(=O)O2)cc2ccccc2c1=O (stereo not given) has a reported TGI of 54.7

Data point: CCCCC(CCCC)=NNC(=S)SC ; TGI = 57.6

Measured TGI, CC1OC(OC2C(O)COC(OC3C(C)OC(OC4C(OC(=O)[C@]56CCC(C)(C)C[C@@H]5C5=CCC7[C@@]8(C)C[C@H](O)[C@H](OC9OC(CO)C(O)C(O)C9O)[C@@](C)(CO)[C@@H]8CC[C@@]7(C)[C@]5(C)CC6)OCC(O)C4O)C(O)C3OC3OCC(O)C(O)C3O)C2O)C(O)C(O)C1O (stereo not given in full) : 46.1

TGI reported for this compound COc1cc(/C=N/NC(=O)c2c(Cl)c(Cl)c(Cl)c(Cl)c2-c2nc3ccccc3[nH]2)ccc1O : 87.6

# compound N#C/C(=C/c1cccc2ccccc12)C(=O)c1ccccc1 ; its TGI = 47.9

Continuing:
// recorded TGI for COc1cc([C@@H]2c3cc4c(cc3[C@@H](NC(=O)c3cccc(C#N)c3)C3COC(=O)[C@@H]32)OCO4)cc(OC)c1O (stereo not given in full) : 0.67

In plain terms, CC(C)NC(=O)OCc1c(COC(=O)NC(C)C)n(C)c2c1ccc1ccsc12 has a documented TGI of 28.7

Per the record, c1ccc(CNc2ccc3[nH]c4cnccc4c3c2)cc1 has TGI of 38.4

The compound identified as CCOC(=O)c1cnc2c(C)cc(C)cc2c1NCCCN(C)C registered its TGI at 26.8
